# SUBJECT OF TEST: human TRPA1 (Homo sapiens (Human), UniProt O75762)
# Sequence (O75762 whole entry): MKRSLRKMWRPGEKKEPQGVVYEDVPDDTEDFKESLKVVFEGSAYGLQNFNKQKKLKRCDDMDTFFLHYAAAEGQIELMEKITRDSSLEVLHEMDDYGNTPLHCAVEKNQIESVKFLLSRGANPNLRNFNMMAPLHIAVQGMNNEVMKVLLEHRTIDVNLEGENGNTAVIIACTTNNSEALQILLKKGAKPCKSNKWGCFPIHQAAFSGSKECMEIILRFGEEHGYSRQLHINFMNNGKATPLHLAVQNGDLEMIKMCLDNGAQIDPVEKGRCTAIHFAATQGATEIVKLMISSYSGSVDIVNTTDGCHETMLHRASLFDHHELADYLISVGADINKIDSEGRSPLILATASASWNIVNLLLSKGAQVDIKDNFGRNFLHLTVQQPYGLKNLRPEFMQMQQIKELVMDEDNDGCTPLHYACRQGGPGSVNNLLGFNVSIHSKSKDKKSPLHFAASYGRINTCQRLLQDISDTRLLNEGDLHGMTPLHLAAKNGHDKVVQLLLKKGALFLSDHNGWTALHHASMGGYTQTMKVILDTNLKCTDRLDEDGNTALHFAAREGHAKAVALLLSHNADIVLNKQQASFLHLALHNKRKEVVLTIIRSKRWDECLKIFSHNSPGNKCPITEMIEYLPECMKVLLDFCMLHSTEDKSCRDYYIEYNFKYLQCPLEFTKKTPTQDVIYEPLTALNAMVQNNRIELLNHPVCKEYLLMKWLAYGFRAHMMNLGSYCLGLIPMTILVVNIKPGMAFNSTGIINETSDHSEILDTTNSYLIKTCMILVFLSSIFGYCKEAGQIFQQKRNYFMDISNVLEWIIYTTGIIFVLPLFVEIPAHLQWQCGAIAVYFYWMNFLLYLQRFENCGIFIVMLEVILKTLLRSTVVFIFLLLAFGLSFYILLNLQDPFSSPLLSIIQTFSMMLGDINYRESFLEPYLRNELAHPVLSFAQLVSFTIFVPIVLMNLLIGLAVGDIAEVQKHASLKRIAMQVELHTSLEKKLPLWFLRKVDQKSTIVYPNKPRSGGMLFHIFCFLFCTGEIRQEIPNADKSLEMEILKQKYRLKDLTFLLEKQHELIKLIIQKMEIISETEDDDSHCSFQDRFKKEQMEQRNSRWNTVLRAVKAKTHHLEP
# ASSAY PROCEDURE: 45Calcium uptake assay, AITC induced, human TRPA1 expressing CHO cells
# MEASUREMENT CONTEXT: AITC 30 micromolar, read-out: IC50 values hTRPA1
As shown below, each of these compounds has a reported IC50 value.

COMPOUND: Cn1c(=O)c2c(CC(=O)Nc3nc(-c4ccc(C(F)(F)F)c(F)c4)cs3)cccc2n(C)c1=O [Compound 18]
UNIT OF MEASURE: nM
IC50: 13.4
--
COMPOUND: Cc1oc2c(c1CC(=O)Nc1nc(-c3ccc(F)c(C(F)(F)F)c3F)cs1)c(=O)n(C)c(=O)n2C [Compound 64]
UNIT OF MEASURE: nM
IC50: 4.52
--
COMPOUND: Cn1c(=O)c2c(CC(=O)Nc3nc(-c4cc(Cl)c(OCC(F)(F)F)c(Cl)c4)cs3)coc2n(C)c1=O [Compound 57]
UNIT OF MEASURE: nM
IC50: 1.45
--
COMPOUND: Cc1oc2c(c1CC(=O)Nc1nc(-c3ccc(Cl)c(C(F)(F)F)c3)cs1)c(=O)n(C)c(=O)n2C [Compound 71]
UNIT OF MEASURE: nM
IC50: 3.18

---

# SUBJECT OF TEST: human TRPV4 (Homo sapiens (Human), UniProt Q9HBA0)
# Sequence (Q9HBA0 whole entry): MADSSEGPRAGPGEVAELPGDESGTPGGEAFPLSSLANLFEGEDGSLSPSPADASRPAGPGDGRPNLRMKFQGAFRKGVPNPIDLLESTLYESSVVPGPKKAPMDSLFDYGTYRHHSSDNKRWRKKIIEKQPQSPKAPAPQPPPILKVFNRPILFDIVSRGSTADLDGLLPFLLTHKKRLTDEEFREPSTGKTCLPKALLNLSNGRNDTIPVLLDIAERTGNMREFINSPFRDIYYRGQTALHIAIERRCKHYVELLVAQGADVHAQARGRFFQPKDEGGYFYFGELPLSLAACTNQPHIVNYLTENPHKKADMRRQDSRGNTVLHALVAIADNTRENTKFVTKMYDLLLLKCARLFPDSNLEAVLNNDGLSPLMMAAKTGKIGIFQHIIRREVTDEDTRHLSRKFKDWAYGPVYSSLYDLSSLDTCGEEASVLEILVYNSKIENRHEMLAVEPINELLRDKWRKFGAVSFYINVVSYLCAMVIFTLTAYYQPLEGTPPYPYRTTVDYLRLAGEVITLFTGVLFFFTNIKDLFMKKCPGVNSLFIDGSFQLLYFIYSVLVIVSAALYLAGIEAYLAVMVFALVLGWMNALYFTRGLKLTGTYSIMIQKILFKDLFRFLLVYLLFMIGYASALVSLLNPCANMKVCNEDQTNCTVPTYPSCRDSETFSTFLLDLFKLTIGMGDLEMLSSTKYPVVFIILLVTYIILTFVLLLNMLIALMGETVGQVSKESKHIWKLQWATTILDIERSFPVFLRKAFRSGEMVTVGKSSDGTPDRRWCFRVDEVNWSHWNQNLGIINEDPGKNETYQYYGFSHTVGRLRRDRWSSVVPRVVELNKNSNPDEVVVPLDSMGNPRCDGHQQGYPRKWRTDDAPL
# ASSAY PROCEDURE: Radiometric calcium selectivity assay, CHO cells expressing human TRPV4 (4α-phorbol 12,13-didecanoate)
# MEASUREMENT CONTEXT: read-out: IC50 values hTRPV4
pIC50: −log10 of the molar value.

MOLECULE: CCc1sc2c(c1CC(=O)Nc1nc(-c3cc(F)c(OC(F)F)c(F)c3)cs1)c(=O)n(C)c(=O)n2C [Compound 48]
pIC50: < 5.00
--
MOLECULE: Cc1oc2c(c1CC(=O)Nc1nc(-c3ccc(OC(F)(F)F)c(F)c3)cs1)c(=O)n(C)c(=O)n2C [Compound 70]
pIC50: < 6.00
--
MOLECULE: Cc1oc2c(c1CC(=O)Nc1nc(-c3ccc(F)c(OC(F)(F)F)c3)cs1)c(=O)n(C)c(=O)n2C [Compound 68]
pIC50: < 5.00
--
MOLECULE: Cn1c(=O)c2c(cnn2CC(=O)Nc2nc(-c3cc(Cl)c(OCC(C)(C)C)c(Cl)c3)cs2)n(C)c1=O [Compound 37]
pIC50: < 5.00

---

As shown below, each of these molecules has a reported IC50 value.
# SUBJECT OF TEST: human TRPV3 (Homo sapiens (Human), UniProt Q8NET8)
# Sequence (Q8NET8 whole entry): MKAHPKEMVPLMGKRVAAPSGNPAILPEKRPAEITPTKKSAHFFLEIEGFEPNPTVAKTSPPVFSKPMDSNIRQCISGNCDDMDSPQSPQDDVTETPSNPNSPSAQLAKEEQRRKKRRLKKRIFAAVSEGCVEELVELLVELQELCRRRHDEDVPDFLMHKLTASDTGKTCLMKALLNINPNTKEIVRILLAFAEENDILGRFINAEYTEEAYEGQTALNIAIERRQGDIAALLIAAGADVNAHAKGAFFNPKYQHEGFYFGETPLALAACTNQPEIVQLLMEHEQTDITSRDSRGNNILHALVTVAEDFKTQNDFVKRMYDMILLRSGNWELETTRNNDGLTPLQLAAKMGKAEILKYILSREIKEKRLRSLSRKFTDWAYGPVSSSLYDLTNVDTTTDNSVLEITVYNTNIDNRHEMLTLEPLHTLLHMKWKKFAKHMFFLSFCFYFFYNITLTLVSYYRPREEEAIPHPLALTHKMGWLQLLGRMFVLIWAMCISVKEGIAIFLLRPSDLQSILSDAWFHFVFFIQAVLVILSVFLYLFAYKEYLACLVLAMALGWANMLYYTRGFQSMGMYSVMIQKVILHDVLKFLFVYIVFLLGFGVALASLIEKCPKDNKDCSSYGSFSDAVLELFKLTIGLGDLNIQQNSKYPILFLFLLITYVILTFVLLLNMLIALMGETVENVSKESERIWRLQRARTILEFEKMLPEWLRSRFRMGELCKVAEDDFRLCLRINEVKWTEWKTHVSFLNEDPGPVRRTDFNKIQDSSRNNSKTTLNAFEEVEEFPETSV
# ASSAY PROCEDURE: Radiometric calcium selectivity assay, CHO cells expressing human TRPV3 (2-aminoethoxydiphenyl borate)
# MEASUREMENT CONTEXT: read-out: IC50 values hTRPV3
ATTRIBUTE MEASURED: IC50

SMI: Cn1c(=O)c2c(CC(=O)Nc3nc(-c4ccc(OC(F)(F)F)c(F)c4)cs3)ccnc2n(C)c1=O
ATTRIBUTE MEASURED: IC50
REPORTED RESULT: > 1 µM

SMI: CC(C)COc1c(F)cc(-c2csc(NC(=O)Cc3coc4c3c(=O)n(C)c(=O)n4C)n2)cc1F
ATTRIBUTE MEASURED: IC50
REPORTED RESULT: > 10 µM

SMI: Cn1c(=O)c2c(CC(=O)Nc3ccn(-c4ccc(Cl)cc4)n3)cccc2n(C)c1=O
ATTRIBUTE MEASURED: IC50
REPORTED RESULT: > 10 µM

SMI: Cc1sc2c(c1CC(=O)Nc1nc(-c3ccc(Cl)c(Cl)c3)cs1)c(=O)n(C)c(=O)n2C
ATTRIBUTE MEASURED: IC50
REPORTED RESULT: > 10 µM

SMI: CCc1sc2c(c1CC(=O)Nc1nc(-c3cc(F)c(OC(F)F)c(F)c3)cs1)c(=O)n(C)c(=O)n2C
ATTRIBUTE MEASURED: IC50
REPORTED RESULT: > 10 µM

SMI: Cn1c(=O)c2c(CC(=O)Nc3nc(-c4cc(F)c(CCC(F)(F)F)c(F)c4)cs3)coc2n(C)c1=O
ATTRIBUTE MEASURED: IC50
REPORTED RESULT: > 10 µM

SMI: Cn1nc2c(c1CC(=O)Nc1nc(-c3ccc(C(F)(F)F)cc3)cs1)c(=O)n(C)c(=O)n2C
ATTRIBUTE MEASURED: IC50
REPORTED RESULT: > 10 µM

SMI: Cc1oc2c(c1CC(=O)Nc1nc(-c3ccc(C(F)(F)F)c(F)c3F)cs1)c(=O)n(C)c(=O)n2C
ATTRIBUTE MEASURED: IC50
REPORTED RESULT: 2.5 µM

SMI: Cc1oc2c(c1CC(=O)Nc1nc(-c3ccc(F)c(C(F)(F)F)c3F)cs1)c(=O)n(C)c(=O)n2C
ATTRIBUTE MEASURED: IC50
REPORTED RESULT: > 1 µM

SMI: Cc1oc2c(c1CC(=O)Nc1nc(-c3cccc(C(F)(F)F)c3F)cs1)c(=O)n(C)c(=O)n2C
ATTRIBUTE MEASURED: IC50
REPORTED RESULT: > 1 µM

SMI: Cn1c(=O)c2c(cnn2CC(=O)Nc2nc(-c3ccc(OCC(C)(C)C)c(F)c3)cs2)n(C)c1=O
ATTRIBUTE MEASURED: IC50
REPORTED RESULT: > 1 µM

SMI: Cn1c(=O)c2c(CC(=O)Nc3nc(-c4ccc(C(F)(F)F)c(F)c4F)cs3)cccc2n(C)c1=O
ATTRIBUTE MEASURED: IC50
REPORTED RESULT: > 1 µM

SMI: Cn1c(=O)c2c(CC(=O)Nc3nc(-c4ccc(C(F)(F)F)c(F)c4)cs3)cccc2n(C)c1=O
ATTRIBUTE MEASURED: IC50
REPORTED RESULT: > 10 µM

SMI: Cc1oc2c(c1CC(=O)Nc1nc(-c3ccc(F)c(OC(F)(F)F)c3)cs1)c(=O)n(C)c(=O)n2C
ATTRIBUTE MEASURED: IC50
REPORTED RESULT: > 1 µM

SMI: Cn1c(=O)c2c(CC(=O)Nc3nc(-c4cc(F)c(C(F)(F)F)c(F)c4)cs3)cccc2n(C)c1=O
ATTRIBUTE MEASURED: IC50
REPORTED RESULT: > 10 µM

SMI: Cn1c(=O)c2c(CC(=O)Nc3nc(-c4ccc(Cl)c(C(F)(F)F)c4)cs3)cccc2n(C)c1=O
ATTRIBUTE MEASURED: IC50
REPORTED RESULT: > 10 µM

SMI: Cn1c(=O)c2c(CC(=O)Nc3nc(-c4cccc(OC(F)(F)F)c4)cs3)cccc2n(C)c1=O
ATTRIBUTE MEASURED: IC50
REPORTED RESULT: > 1 µM

SMI: Cn1c(=O)c2c(cnn2CC(=O)Nc2nc(-c3cc(F)c(OCC(C)(C)C)c(F)c3)cs2)n(C)c1=O
ATTRIBUTE MEASURED: IC50
REPORTED RESULT: > 10 µM

SMI: CC(C)c1ccc(-c2csc(NC(=O)Cc3cccc4c3c(=O)n(C)c(=O)n4C)n2)cc1
ATTRIBUTE MEASURED: IC50
REPORTED RESULT: > 1 µM

SMI: Cc1oc2c(c1CC(=O)Nc1nc(-c3cc(F)c(OCC(C)(C)C)c(F)c3)cs1)c(=O)n(C)c(=O)n2C
ATTRIBUTE MEASURED: IC50
REPORTED RESULT: > 10 µM

SMI: Cc1oc2c(c1CC(=O)Nc1nc(-c3ccc(Cl)c(C(F)(F)F)c3)cs1)c(=O)n(C)c(=O)n2C
ATTRIBUTE MEASURED: IC50
REPORTED RESULT: > 1 µM

SMI: Cn1c(=O)c2c(CC(=O)Nc3nc(-c4ccc(C(C)(C)C)cc4)cs3)cccc2n(C)c1=O
ATTRIBUTE MEASURED: IC50
REPORTED RESULT: > 10 µM

SMI: Cn1c(=O)c2c(CC(=O)Nc3nc(-c4ccc(OC(F)(F)F)c(Cl)c4)cs3)nsc2n(C)c1=O
ATTRIBUTE MEASURED: IC50
REPORTED RESULT: > 10 µM

SMI: CC(C)c1sc2c(c1CC(=O)Nc1nc(-c3ccc(C(F)(F)F)c(F)c3)cs1)c(=O)n(C)c(=O)n2C
ATTRIBUTE MEASURED: IC50
REPORTED RESULT: > 10 µM

SMI: CC(C)CCOc1ccc(-c2csc(NC(=O)Cc3cccc4c3c(=O)n(C)c(=O)n4C)n2)cc1
ATTRIBUTE MEASURED: IC50
REPORTED RESULT: > 10 µM

SMI: Cn1nc2c(c1CC(=O)Nc1nc(-c3ccc(C(F)(F)F)c(F)c3)cs1)c(=O)n(C)c(=O)n2C
ATTRIBUTE MEASURED: IC50
REPORTED RESULT: > 10 µM

SMI: Cn1c(=O)c2c(CC(=O)Nc3nc(-c4cc(Cl)c(OCC(F)(F)F)c(Cl)c4)cs3)coc2n(C)c1=O
ATTRIBUTE MEASURED: IC50
REPORTED RESULT: > 10 µM

SMI: Cn1c(=O)c2c(CC(=O)Nc3nc(-c4ccc(OC(F)F)c(Cl)c4)cs3)cccc2n(C)c1=O
ATTRIBUTE MEASURED: IC50
REPORTED RESULT: > 10 µM
